Data origin, for the record: ChEMBL document CHEMBL1143981

- procedure text: Inhibition of RNase A by precipitation assay
pIC50: −log10 of the molar value.
Below, each entry is listed alongside its reported pIC50.

smiles representation | pIC50
CC(=O)O[C@H]1C[C@H](n2cc(C)c(=O)[nH]c2=O)O[C@@H]1CO | 3.71
Nc1ccn([C@@H]2O[C@H](CO)[C@@H](OP(=O)(O)O)[C@H]2O)c(=O)n1 | 3.51
Cc1cn([C@H]2C[C@H](OC(=O)c3ccccc3)[C@@H](CO)O2)c(=O)[nH]c1=O | 3.47
Cc1cn([C@H]2C[C@H](OP(=O)(O)O)[C@@H](CO)O2)c(=O)[nH]c1=O | 3.78
